Measured EC50, listed per entry for reference.
- targetSystem: 5-HT2A (Homo sapiens)
- Sequence (P28223 whole entry): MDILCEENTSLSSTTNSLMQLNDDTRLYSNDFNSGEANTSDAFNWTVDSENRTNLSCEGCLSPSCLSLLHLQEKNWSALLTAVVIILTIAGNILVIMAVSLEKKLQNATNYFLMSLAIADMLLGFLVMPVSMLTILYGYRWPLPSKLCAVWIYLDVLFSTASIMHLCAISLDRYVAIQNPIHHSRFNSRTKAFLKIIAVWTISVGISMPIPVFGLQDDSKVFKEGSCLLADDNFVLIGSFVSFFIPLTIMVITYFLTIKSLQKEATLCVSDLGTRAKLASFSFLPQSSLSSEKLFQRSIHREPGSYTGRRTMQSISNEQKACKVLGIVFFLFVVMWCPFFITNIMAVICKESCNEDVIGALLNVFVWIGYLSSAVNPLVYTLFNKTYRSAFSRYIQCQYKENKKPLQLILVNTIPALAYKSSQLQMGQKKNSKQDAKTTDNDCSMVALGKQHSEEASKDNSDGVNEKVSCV
- testMethodNotes: Serotonin 5-HT2A in vitro cellular IPOne agonism assay
- Assay type: cell-based
- Set-up: host or cells: CHO-K1
- assayContext: benzofurans; CHO-K1 cells, 60 min

| structureSmiles | EC50 |
| --- | --- |
| Fc1ccc2c3c(oc2c1)CCNCC3 | 0.01 to 0.1 µM |
| CN1CCc2oc3cc(C(F)(F)F)ccc3c2CC1 | > 10 µM |
| c1ccc2c3c(oc2c1)CCCNC3 | > 10 µM |
| c1ccc(COc2ccc3c4c(oc3c2)CCNCC4)cc1 | 1 to 10 µM |
| CN1CCCc2oc3cc(OC(F)(F)F)ccc3c2C1 | > 10 µM |
| COc1cccc2oc3c(c12)CN(C1CCC1)CCC3 | 1 to 10 µM |
| COc1ccc2c3c(oc2c1)CCCN(CC(F)(F)F)C3 | > 10 µM |
| Fc1cccc2oc3c(c12)CCNCC3 | 0.101 to 1 µM |
| Fc1cccc2oc3c(c12)CN(C1CCC1)CCC3 | > 10 µM |
| FC(F)(F)Oc1ccc2c3c(oc2c1)CCNCC3 | 0.101 to 1 µM |
| COc1ccc2c3c(oc2c1)CCN(C1CCC1)CC3 | > 10 µM |
| c1ccc(COc2cccc3oc4c(c23)CCNCC4)cc1 | 1 to 10 µM |
| COc1ccc2c3c(oc2c1)CCN(C)CC3 | > 10 µM |
| CN1CCCc2oc3ccccc3c2C1 | > 10 µM |
| COc1ccc2c3c(oc2c1)CCCNC3 | > 10 µM |
| c1ccc(COc2ccc3c4c(oc3c2)CCCNC4)cc1 | > 10 µM |
| COc1ccc2c3c(oc2c1)CCCN(C1CCC1)C3 | > 10 µM |
| FC(F)(F)c1ccc2c3c(oc2c1)CCNCC3 | 0.101 to 1 µM |
| CN1CCc2oc3cc(F)ccc3c2CC1 | 0.101 to 1 µM |
| CN1CCCc2oc3cc(C(F)(F)F)ccc3c2C1 | > 10 µM |
| CN1CCc2oc3cccc(F)c3c2CC1 | 0.101 to 1 µM |
| FC(F)(F)c1ccc2c3c(oc2c1)CCCNC3 | 1 to 10 µM |
| Fc1cccc2oc3c(c12)CNCCC3 | > 10 µM |
| c1ccc(COc2cccc3oc4c(c23)CNCCC4)cc1 | > 10 µM |
| Fc1cccc2oc3c(c12)CCN(C1CCC1)CC3 | 1 to 10 µM |
| CN1CCc2oc3ccccc3c2CC1 | > 10 µM |
| COc1cccc2oc3c(c12)CCNCC3 | 0.01 to 0.1 µM |
| FC(F)(F)CN1CCCc2oc3ccccc3c2C1 | > 10 µM |
| CN1CCc2oc3cc(OCc4ccccc4)ccc3c2CC1 | > 10 µM |
| c1ccc2c3c(oc2c1)CCN(C1CCC1)CC3 | > 10 µM |
| Fc1ccc2c3c(oc2c1)CCCNC3 | 1 to 10 µM |
| COc1cccc2oc3c(c12)CNCCC3 | 1 to 10 µM |
| c1ccc2c3c(oc2c1)CCNCC3 | 0.101 to 1 µM |
| CN1CCc2oc3cc(OC(F)(F)F)ccc3c2CC1 | > 10 µM |

Every entry's value here was drawn from patent US20250051346A1.
